Data provenance: PubChem BioAssay AID248

Test system: L1210 leukemia ip in BDF1 mice, survival T/C
Experiment: NCI In Vivo Anticancer Drug Screen. Data for tumor model L1210 Leukemia (intraperitoneal) in B6D2F1 (BDF1) mice
Conditions: endpoint: mean survival time; dose: 75.0 mg/kg/injection; schedule: Q01DX001 (ip); vehicle: carboxymethylcellulose (CMC); higher = longer survival
Toxic doses and inconclusive results are not listed.
Measured T/C by item
observation.type: T/C

>>> measured_result("c1ccc(CNCC2c3[nH]c4ccccc4c3CN2C2CCCCC2)cc1 (stereo unspecified)")
"102 % of control"
>>> measured_result("O=S(=O)(NCCBr)c1ccccc1")
"101 % of control"
>>> measured_result("O=C(CNC(=O)OCc1ccccc1)NC(Cc1ccccc1)C(=O)Oc1c(Cl)c(Cl)c(Cl)c(Cl)c1Cl (stereo unspecified)")
"106 % of control"
>>> measured_result("CNc1ccccn1")
"95 % of control"
>>> measured_result("Cc1ccc(N=C(N)N=C(N)N)cc1C")
"97 % of control"
>>> measured_result("CCOc1cccc(OC(C)=O)c1")
"103 % of control"
